Target: human SLC6A19 and TMEM27 (Homo sapiens, UniProt Q695T7)
Construct: expressed in transfected cells
Sequence (Q695T7 1-634): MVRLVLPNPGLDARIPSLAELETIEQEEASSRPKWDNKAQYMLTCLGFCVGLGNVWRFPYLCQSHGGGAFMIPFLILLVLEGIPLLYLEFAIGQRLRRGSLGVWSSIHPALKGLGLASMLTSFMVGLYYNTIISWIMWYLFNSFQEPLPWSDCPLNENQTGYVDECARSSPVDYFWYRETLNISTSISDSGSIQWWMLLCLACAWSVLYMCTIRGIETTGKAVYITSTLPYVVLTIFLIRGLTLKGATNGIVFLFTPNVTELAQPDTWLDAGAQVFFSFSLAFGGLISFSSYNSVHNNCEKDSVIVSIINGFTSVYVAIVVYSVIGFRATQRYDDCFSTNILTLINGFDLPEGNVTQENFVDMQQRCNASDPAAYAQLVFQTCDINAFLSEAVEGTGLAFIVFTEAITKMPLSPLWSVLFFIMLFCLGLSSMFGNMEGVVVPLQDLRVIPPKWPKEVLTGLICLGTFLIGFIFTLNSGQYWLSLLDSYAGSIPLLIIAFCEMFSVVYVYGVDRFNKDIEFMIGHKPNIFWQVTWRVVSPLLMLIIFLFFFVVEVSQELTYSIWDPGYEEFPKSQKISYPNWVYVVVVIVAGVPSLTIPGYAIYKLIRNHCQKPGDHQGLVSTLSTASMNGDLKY
Sequence (Q9HBJ8 15-222 partner): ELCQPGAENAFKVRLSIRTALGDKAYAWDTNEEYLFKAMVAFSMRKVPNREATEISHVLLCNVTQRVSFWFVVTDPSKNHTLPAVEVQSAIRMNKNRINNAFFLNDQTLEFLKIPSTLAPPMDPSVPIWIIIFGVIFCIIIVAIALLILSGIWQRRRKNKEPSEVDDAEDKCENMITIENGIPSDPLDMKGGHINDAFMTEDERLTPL
Assay: Radiolabelled (3H) leucine uptake in CHO cells with doxycycline-inducible expression of human SLC6A19 and TMEM27 (Example B-1)
Type: cell-based
Conditions: CHO cells with doxycycline-inducible expression of human SLC6A19 and TMEM27, read-out: SLC6A19_Radioligand Uptake Assay IC50
ASSAY ENDPOINT: pIC50
The meaning of pIC50 here: minus log10 of the concentration in molar units.

Exercise: Short answer please: pIC50, human SLC6A19 and TMEM27 (Homo sapiens, UniProt Q695T7), entry `Cc1cc(COc2cc3[nH]c(CNC(=O)Cn4ccnn4)cc3cc2Cl)on1`
Key: 5.17

Exercise: Recall the recorded pIC50 for `Cc1cc(COc2cc3[nH]c(CNC(=O)[C@H]4C[C@@H]4F)cc3cc2Cl)on1` with human SLC6A19 and TMEM27 (Homo sapiens, UniProt Q695T7) and state it.
Key: 7.23

Exercise: What is its pIC50 for human SLC6A19 and TMEM27 (Homo sapiens, UniProt Q695T7)? Entry: `Cc1cc(COc2cc3[nH]c(CNC(=O)C(C)(C)O)cc3cc2Cl)on1`
Key: 6.26

Exercise: Entry `CC1(C(=O)NCc2cc3cc(Cl)c(OCc4cccnn4)cc3[nH]2)CC1` , system human SLC6A19 and TMEM27 (Homo sapiens, UniProt Q695T7): what pIC50 was measured?
Key: 6.28

Exercise: Look up pIC50 with human SLC6A19 and TMEM27 (Homo sapiens, UniProt Q695T7) for this compound: `CC(C)c1cc(COc2cc3[nH]c(CNC(=O)C4(C)CC4)cc3cc2Cl)no1`
Key: 4.75

Exercise: Observed pIC50 on human SLC6A19 and TMEM27 (Homo sapiens, UniProt Q695T7) for `O=C(NCc1cc2cc(Cl)c(CCc3cscn3)cc2[nH]1)N1CCC1` , please.
Key: 6.79

Exercise: Param readout = pIC50; param system = human SLC6A19 and TMEM27 (Homo sapiens, UniProt Q695T7); param query = Cc1cc(COc2cc3[nH]c(CNC(=O)N4CCCC4C(F)F)cc3cc2Cl)on1 (racemic) ; response: value
Key: 6.02

Exercise: // lookup pIC50 | system=human SLC6A19 and TMEM27 (Homo sapiens, UniProt Q695T7) | key= `O=C(NCc1cc2cc(Cl)c(OCc3cscn3)cc2[nH]1)[C@H]1C[C@@H]1F`
Key: 6.92

Exercise: // lookup pIC50 | system=human SLC6A19 and TMEM27 (Homo sapiens, UniProt Q695T7) | key= `CC1(C(=O)NCc2cc3cc(F)c(OCc4ccno4)cc3[nH]2)CC1`
Key: 6.83

Exercise: Give human SLC6A19 and TMEM27 (Homo sapiens, UniProt Q695T7) pIC50 for `Cc1cc(COc2cc3[nH]c(CNC(=O)C4(C(F)F)CC4)cc3cc2Cl)on1`
Key: 6.54

Exercise: Could you share what pIC50 was measured for O=C(NCc1cc2cc(Cl)c(OCc3cscn3)cc2[nH]1)C1CCOC1 (centres unmarked) , tested on human SLC6A19 and TMEM27 (Homo sapiens, UniProt Q695T7)?
Key: 6.14

Exercise: Quick check: pIC50 on human SLC6A19 and TMEM27 (Homo sapiens, UniProt Q695T7), item `Cc1cc(COc2cc3[nH]c(CNC(=O)N4CC(F)C4)cc3cc2Cl)on1` ?
Key: 6.60

Exercise: Please state recorded pIC50 (tested on human SLC6A19 and TMEM27 (Homo sapiens, UniProt Q695T7)) of `O=C(NCc1cc2cc(C3CC3)c(OCc3cscn3)cc2[nH]1)N1CCC1`
Key: 6.47
